target: Peroxisome proliferator-activated receptor gamma (Homo sapiens) (UniProt P37231); assay: Transactivation of human full length PPARgamma expressed in COS1 cells co-transfected with RXRalpha after 24 hrs by luciferase reporter gene assay relative to farglitazar; assay type: cell-based; settings: COS-1
Sequence (P37231 whole entry): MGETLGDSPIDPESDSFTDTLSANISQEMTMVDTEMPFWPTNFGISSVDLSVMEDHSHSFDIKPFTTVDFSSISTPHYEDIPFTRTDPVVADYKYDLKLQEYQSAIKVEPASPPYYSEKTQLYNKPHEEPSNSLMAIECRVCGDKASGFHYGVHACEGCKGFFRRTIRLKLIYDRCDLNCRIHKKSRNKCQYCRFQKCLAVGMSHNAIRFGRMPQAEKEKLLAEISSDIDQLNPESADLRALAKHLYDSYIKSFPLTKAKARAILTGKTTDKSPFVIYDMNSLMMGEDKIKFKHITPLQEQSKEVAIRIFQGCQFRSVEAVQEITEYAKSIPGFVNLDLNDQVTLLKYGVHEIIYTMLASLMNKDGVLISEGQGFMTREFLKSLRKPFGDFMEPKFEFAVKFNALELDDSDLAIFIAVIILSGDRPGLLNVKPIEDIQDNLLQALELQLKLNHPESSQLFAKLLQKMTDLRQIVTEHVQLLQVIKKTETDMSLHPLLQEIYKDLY
Exercise: state measured Emax for each of the compounds provided.
Give the quantity in %, number only.

Under Peroxisome proliferator-activated receptor gamma (Homo sapiens) (UniProt P37231): report Emax of C/C=C/C=C/C(=O)N1Cc2cc(OCCc3nc(/C=C/C(C)C)oc3C)ccc2C[C@H]1C(=O)O.CC(C)(C)N .
104

Under Peroxisome proliferator-activated receptor gamma (Homo sapiens) (UniProt P37231): report Emax of CC(C)(C)N.CC(C)=C/C=C/C(=O)N1Cc2cc(OCCc3nc(/C=C/CCC(C)C)oc3C)ccc2C[C@H]1C(=O)O .
85

Under Peroxisome proliferator-activated receptor gamma (Homo sapiens) (UniProt P37231): report Emax of C/C=C/C=C/C(=O)N1Cc2cc(OCCc3nc(/C(C)=C/CC)oc3C)ccc2C[C@H]1C(=O)O.CC(C)(C)N .
96

Under Peroxisome proliferator-activated receptor gamma (Homo sapiens) (UniProt P37231): report Emax of CC(C)(C)N.CCCCCC(=O)N1Cc2cc(OCCc3nc(/C=C/CCC(C)C)oc3C)ccc2C[C@H]1C(=O)O .
94

Under Peroxisome proliferator-activated receptor gamma (Homo sapiens) (UniProt P37231): report Emax of C/C=C/C=C/C(=O)N1Cc2cc(OCCc3nc(/C(=C/C)CC)oc3C)ccc2C[C@H]1C(=O)O.CC(C)(C)N .
91

###

tested on: Mus musculus; experiment: Hypoglycemic activity in diabetic KK-Ay mouse model assessed as decrease in glucose level at 10 mg/kg, po qd for 4 days relative to untreated control; assay type: functional; parameters: scale not given: the % may be the effect or the level left
Exercise: state measured Activity for each of the compounds provided.
Give the quantity in %, number only.

Name the recorded Activity of the compound listed here: C=CCCCC(=O)N1Cc2cc(OCCc3nc(/C=C/CCC(C)C)oc3C)ccc2C[C@H]1C(=O)O.CC(C)(C)N
22

Name the recorded Activity of the compound listed here: CN(CCOc1ccc(CC2SC(=O)NC2=O)cc1)c1ccccn1 (centres undefined)
48

Name the recorded Activity of the compound listed here: CC(C)(C)N.Cc1oc(/C=C/CCC(C)C)nc1CCOc1ccc2c(c1)CN(C(=O)/C=C/C1CC1)[C@H](C(=O)O)C2
27

Name the recorded Activity of the compound listed here: C=CCCC(=O)N1Cc2cc(OCCc3nc(/C=C/CCC(C)C)oc3C)ccc2C[C@H]1C(=O)O.CC(C)(C)N
45

Name the recorded Activity of the compound listed here: C/C=C/C=C(\C)C(=O)N1Cc2cc(OCCc3nc(/C=C/CCC(C)C)oc3C)ccc2C[C@H]1C(=O)O.CC(C)(C)N
21

Name the recorded Activity of the compound listed here: CC(C)(C)N.CC(C)=C/C=C/C(=O)N1Cc2cc(OCCc3nc(/C=C/CCC(C)C)oc3C)ccc2C[C@H]1C(=O)O
44

Name the recorded Activity of the compound listed here: CC(C)(C)N.CCC(O)/C=C/C(=O)N1Cc2cc(OCCc3nc(/C=C/CCC(C)C)oc3C)ccc2C[C@H]1C(=O)O (some centres undefined)
19

Name the recorded Activity of the compound listed here: C/C=C/C=C/C(=O)N1Cc2cc(OCCc3nc(/C=C/CCC(C)C)oc3C)ccc2C[C@H]1C(=O)O.CC(C)(C)N
55

Name the recorded Activity of the compound listed here: C/C=C/C=C/C(=O)N1Cc2cc(OCCc3nc(/C(C)=C/CCC(C)C)oc3C)ccc2C[C@H]1C(=O)O.CC(C)(C)N
56

Source listed as ChEMBL document CHEMBL1933004.
